What GFP response relative to DMSO was measured for each of the following?
Assay: LAP4-GFP expression modulators in yeast, confirmation, cell-based, cherry picks, flow cytometry, mother/daughter gates (AID 2271);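 further: ratio of sample to DMSO plate mean so 100% equals DMSO level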
Details: S. cerevisiae LAP4-GFP strain, 3 h, measured here: mother cell gate response, at 10 µM, stronger effect = higher value, 100 means same as DMSO control
Numbers only, in %.

Sample records with GFP response relative to DMSO:
COMPOUND: CCCn1c(=O)c(C(=O)Nc2ccccc2C(=O)OCC)c(O)c2ccccc21
GFP response relative to DMSO, %: 97.4
//
COMPOUND: C/C(=N/NC(=O)c1ccc(C(C)(C)C)cc1)c1ccccn1
GFP response relative to DMSO, %: 209
//
COMPOUND: Cc1ccc(CS(=O)(=O)c2ncc(Cl)c(C(=O)Nc3nnc(C)s3)n2)cc1
GFP response relative to DMSO, %: 104
//
COMPOUND: O=C(CCS(=O)(=O)Cc1ccccc1F)NCCc1ccc(Cl)cc1
GFP response relative to DMSO, %: 101
//
COMPOUND: CCOC(=O)CCS(=O)(=O)c1nc(-c2ccccc2)cc(C(F)(F)F)n1
GFP response relative to DMSO, %: 170

Please give GFP response relative to DMSO for each item listed below.
1. O=C(c1cc([N+](=O)[O-])cc([N+](=O)[O-])c1)N(Cc1nnc(-c2ccccc2Cl)o1)C1CC1
2. Cc1ccc(C(c2cc(Cl)c3cccnc3c2O)N2CCN(C)CC2)cc1 (stereo unspecified)
3. Cc1cc(C)c(OCC(=O)Nc2nc(-c3ccccn3)cs2)c(C)c1
4. COc1ccc(/C=C/C(=O)c2ccc(Cl)cc2)c(OC)c1
5. Cc1ccn2c(NC3CCCCC3)c(C(C)C)nc2c1
6. O=C(CSc1ccc(-c2ccccn2)nn1)N1CCCCC1

Response:
1: 99.3; 2: 208; 3: 126; 4: 106; 5: 100; 6: 101
